# Target under test: Muscarinic acetylcholine receptor M1 (Homo sapiens)
# Test name: Displacement of [3H]-NMS from human muscarinic M1 acetylcholine receptor expressed CHO cells after 4 hrs by scintillation counting
# Type: cell-based
Property label: pKb

>>> df
                         structure_notation  result_value
0  CCOC(=O)c1cn(Cc2ccc(OC)cc2)c2c(OC)ccc(F)c2c1=O          4.82
1  CCOC(=O)c1cn(Cc2ccc(OC)cc2)c2cccc(OC)c2c1=O          4.22
2  CCOC(=O)c1cn(Cc2ccc(-c3ccccc3)cc2)c2c(OC)cccc2c1=O          4.08
3  COc1cccc2c1c(=O)c(C(=O)O)cn2Cc1ccc(-c2ccccc2)cc1          5.67
4  COc1ccc(Cn2cc(C(=O)NS(C)(=O)=O)c(=O)c3c(F)ccc(F)c32)cc1          4.63

----------
# Target under test: Muscarinic acetylcholine receptor M1 (Homo sapiens) (UniProt P11229)
# Test name: Displacement of [3H]-NMS from human muscarinic M1 acetylcholine receptor expressed CHO cells after 4 hrs by scintillation counting
# Format: cell-based
Property label: pKb

                         structure_notation                         target_under_test  result_value
0  CCNC(=O)c1cn(Cc2ccc(OC)cc2)c2c(F)ccc(F)c2c1=O  Muscarinic acetylcholine receptor M1 (Homo sapiens) (UniProt P11229)          5.78
1  COc1ccc(Cn2cc(C#N)c(=O)c3c(F)ccc(F)c32)cc1  Muscarinic acetylcholine receptor M1 (Homo sapiens) (UniProt P11229)          4.66
2  COc1ccc(Cn2cc(C(=O)O)c(=O)c3c(F)ccc(F)c32)cc1  Muscarinic acetylcholine receptor M1 (Homo sapiens) (UniProt P11229)          4.96
3  COc1ccc(Cn2cc(C(=O)O)c(=O)c3cccc(OC)c32)cc1  Muscarinic acetylcholine receptor M1 (Homo sapiens) (UniProt P11229)          4.75
4   COc1ccc(Cn2cc(C(=O)O)c(=O)c3ccccc32)cc1  Muscarinic acetylcholine receptor M1 (Homo sapiens) (UniProt P11229)          4.72
5  O=C(O)c1cn(Cc2ccc(-c3ccccc3)cc2)c2c(F)ccc(O)c2c1=O  Muscarinic acetylcholine receptor M1 (Homo sapiens) (UniProt P11229)          5.55
6  COc1ccc(Cn2cc(C(=O)NCCO)c(=O)c3c(F)ccc(F)c32)cc1  Muscarinic acetylcholine receptor M1 (Homo sapiens) (UniProt P11229)          4.65
7  COc1ccc(Cn2cc(C(=O)O)c(=O)c3c(F)ccc(OC)c32)cc1  Muscarinic acetylcholine receptor M1 (Homo sapiens) (UniProt P11229)          4.86
8  CCOC(=O)c1cn(Cc2ccc(OC)cc2)c2c(OC)cccc2c1=O  Muscarinic acetylcholine receptor M1 (Homo sapiens) (UniProt P11229)          4.51
9  COc1ccc(Cn2cc(C(=O)Nc3ccccc3)c(=O)c3c(F)ccc(F)c32)cc1  Muscarinic acetylcholine receptor M1 (Homo sapiens) (UniProt P11229)           4.8

----------
# Target under test: UniProt P11229
# Sequence (whole entry): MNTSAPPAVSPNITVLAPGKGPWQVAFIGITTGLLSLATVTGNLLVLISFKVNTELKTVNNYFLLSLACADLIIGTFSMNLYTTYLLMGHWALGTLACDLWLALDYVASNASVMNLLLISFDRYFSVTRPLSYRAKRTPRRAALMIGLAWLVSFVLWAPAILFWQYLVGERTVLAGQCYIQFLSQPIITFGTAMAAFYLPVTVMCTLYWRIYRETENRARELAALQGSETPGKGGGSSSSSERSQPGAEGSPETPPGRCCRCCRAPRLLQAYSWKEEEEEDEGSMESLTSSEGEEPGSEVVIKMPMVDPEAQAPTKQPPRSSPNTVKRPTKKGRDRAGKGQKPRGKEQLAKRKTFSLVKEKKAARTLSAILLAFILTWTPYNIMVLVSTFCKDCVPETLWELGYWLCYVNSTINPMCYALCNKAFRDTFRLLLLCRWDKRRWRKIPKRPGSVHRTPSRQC
# Test name: Displacement of [3H]-NMS from human muscarinic M1 acetylcholine receptor expressed CHO cells after 4 hrs by scintillation counting
# Type: cell-based
Property label: pKb

>>> df
                         structure_notation  target_under_test  property_label  result_value
0  COc1ccc(Cn2cc(C(=O)NO)c(=O)c3c(F)ccc(F)c32)cc1     UniProt P11229             pKb           4.8
1         O=C(O)c1cn(CC2CCNCC2)c2ccccc2c1=O     UniProt P11229             pKb          4.82
2  COc1ccc(Cn2cc(C(=O)N3CCCCC3)c(=O)c3c(F)ccc(F)c32)cc1     UniProt P11229             pKb          4.71
3  COc1ccc(Cn2cc(C(=O)NC(C)=O)c(=O)c3c(F)ccc(F)c32)cc1     UniProt P11229             pKb          4.35
4  O=C(O)c1cn(Cc2ccc(-c3ccccc3)cc2)c2c(F)ccc(F)c2c1=O     UniProt P11229             pKb          5.36
5  O=C(O)c1cn(CC2CCN(C(=O)Nc3ccccc3)CC2)c2ccccc2c1=O     UniProt P11229             pKb          4.66
6  COc1ccc(Cn2cc(C(=O)NCc3ccccc3)c(=O)c3c(F)ccc(F)c32)cc1     UniProt P11229             pKb          4.63
7  COc1ccc(F)c2c(=O)c(C(=O)O)cn(Cc3ccc(-c4ccccc4)cc3)c12     UniProt P11229             pKb          5.84
8  COc1ccc(Cn2cc(C(=O)NN3CCCCC3)c(=O)c3c(F)ccc(F)c32)cc1     UniProt P11229             pKb          5.07
9  COc1cccc2c(=O)c(C(=O)O)cn(Cc3ccc(-c4ccccc4)cc3)c12     UniProt P11229             pKb          5.71
